Values compiled from the RNAGym collection of RNA variant scans (doi:10.7554/elife.80360).

B1: CPEB3 Ribozyme (parent)
chain: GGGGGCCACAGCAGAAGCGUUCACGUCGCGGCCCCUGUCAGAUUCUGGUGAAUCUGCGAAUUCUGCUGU

Variants of: B1
protocolText: self-cleavage, relative activity (ratio to wild type); higher = more cleavage; co-transcriptional
Kind request: treat 0.3 as inclusive, so self-cleavage at 0.3 or higher is yes (1), anything lower is no (0).

Sample answers from the record:
U21A C24A; yes (1)
G17C C22A; no (0)
G3C U62C; no (0)
G14A U55C; no (0)
G19U G68C; yes (1)

Now consider a different variant.
// inclusive: self-cleavage at least 0.3? input: U46A G58C
yes (1)
